Recorded measurements of IC50, one per entry
- System: osteoclast precursors
- PROTOCOL TEXT: Osteoclast tartrate-resistant acid phosphatase assay
- Assay type: cell-based
- CONDITION: Osteoclast; 7-14 days, RANKL and M-CSF

[
  {
    "COMPOUND": "CC(=O)Nc1cc(Oc2ccc(NC(=O)NC(=O)C(C)C)nc2C)ccn1",
    "IC50": "10 to 100 nM"
  },
  {
    "COMPOUND": "CC(=O)Nc1cc(Oc2ccc(NC(=O)NC(=O)C(C)(C)C)nc2)ccn1",
    "IC50": "< 10 nM"
  }
]

Record lookup: for osteoclast precursors, what IC50 belongs to CN(C)C(=O)Nc1cc(Oc2ccc(NC(=O)NC(=O)C3CCOCC3)nc2)ccn1 ?
10 to 100 nM

Then CC(C)C(=O)Nc1cc(Oc2ccc(NC(=O)NC(=O)C(C)(C)C)nc2)ccn1 ?
10 to 100 nM

Consider next the compound CC(C)(C)C(=O)NC(=O)Nc1ccc(Oc2ccnc(NC(=O)N3CCC3)c2)cn1 in the same way.
< 10 nM

Now the compound CC(=O)Nc1cc(Oc2ccc(NC(=O)NC(=O)CC3CCCCC3)nc2)ccn1
< 10 nM

Also CN1CCN(C(=O)Nc2cc(Oc3ccc(NC(=O)NC(=O)C(C)(C)C)nc3)ccn2)CC1 , if possible.
< 10 nM

Input CCC(=O)NC(=O)Nc1ccc(Oc2ccnc(NC(C)=O)c2)cn1
100 to 1000 nM

Same again, this time with CN(C)C(=O)Nc1cc(Oc2ccc(NC(=O)NC(=O)C(C)(C)C)nc2)ccn1
< 10 nM

Try the compound CC(=O)Nc1cc(Oc2ccc(NC(=O)NC(=O)C3CCOC3)nc2C)ccn1 (stereo not drawn)
100 to 1000 nM

Moving on to CC(=O)Nc1cc(Oc2ccc(NC(=O)NC(=O)C3CCOCC3)nc2C)ccn1
10 to 100 nM

And then CNC(=O)c1cc(Oc2ccc(NC(=O)NC(=O)C3(OC)CCCC3)nc2)ccn1 , what is it?
10 to 100 nM

Same thing, different compound: CC(C)NC(=O)c1cc(Oc2ccc(NC(=O)NC(=O)C(C)(C)C)nc2)ccn1
10 to 100 nM

Same again, this time with CC(C)(C)C(=O)NC(=O)Nc1ccc(Oc2ccnc(NC(=O)CN3CCCC3)c2)cn1
10 to 100 nM

Continue with COC1(C(=O)NC(=O)Nc2ccc(Oc3ccnc(NC(C)=O)c3)cn2)CC1
< 10 nM
